- assayed system: T1, Extracellular domain of human PD1 (huPD1-ECD) (human, UniProt Q15116 25-169, biotinylated in the ligand inhibition assay (sites not given))
- T1 construct: Expressed with a hexahistidine tag or as Fc fusion; also called biotinylated PD-1
- T1 sequence (Q15116 25-169 limits assumed): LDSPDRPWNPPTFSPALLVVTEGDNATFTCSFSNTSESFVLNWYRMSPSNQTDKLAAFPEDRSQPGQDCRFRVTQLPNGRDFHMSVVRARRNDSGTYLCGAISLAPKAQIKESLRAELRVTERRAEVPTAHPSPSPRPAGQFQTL
- assay text: SPR ProteOn, captured mAb, huPD1-ECD analyte;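 note: SPR on ProteOn XPR36, antibodies captured by anti-IgG Fc on a GLC chip, data fitted with a Langmuir 1:1 model to give on-rate, off-rate and equilibrium KD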
experimental readout: kon (M⁻¹ s⁻¹)
Enter your answer as a number in M⁻¹ s⁻¹; do not include the unit.

PD1B198 (antibody, V domains shown, also called PD1H163/PD1L187) VH: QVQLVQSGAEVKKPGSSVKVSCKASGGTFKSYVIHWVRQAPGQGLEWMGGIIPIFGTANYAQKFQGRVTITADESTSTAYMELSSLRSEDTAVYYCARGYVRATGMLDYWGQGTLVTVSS VL: EIVLTQSPATLSLSPGERATLSCRASQSVSSYLAWYQQKPGQAPRLLIEDASSRATGIPARFSGSGSGTDFTLTISSLEPEDFAVYYCQQRAEWPLTFGQGTKVEIK: 895000

Now take the following binder into account.
Item PD1B201 (antibody, V domains shown, also called PD1H164/PD1L190) VH: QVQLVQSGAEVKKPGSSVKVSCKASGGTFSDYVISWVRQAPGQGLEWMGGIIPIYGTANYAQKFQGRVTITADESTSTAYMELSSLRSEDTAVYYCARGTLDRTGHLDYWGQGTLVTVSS VL: EIVLTQSPATLSLSPGERATLSCRASQSVSNYLAWYQQKPGQAPRLLIYDASNRATGIPARFSGSGSGTDFTLTISSLEPEDFAVYYCQQRNYWPLTFGQGTKVEIK has what recorded kon? 858000

Where these numbers come from: patent US20210277110A1
